Reference source: the RNAGym collection of RNA variant scans (doi:10.1126/science.aae0568)

B1: tRNA (parent)
chain: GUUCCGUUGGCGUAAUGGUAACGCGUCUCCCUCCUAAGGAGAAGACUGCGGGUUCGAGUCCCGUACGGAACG

# Variants of: B1
# PROCEDURE DETAILS: yeast fitness relative to wild type (ratio to wild type); higher = fitter; tRNA-Arg(CCU), competitive growth, 37 C, YPD
Variants at the floor of the assay were thinned out.
READOUT NAME: yeast fitness
Answers are plain numbers.

Consider the reported yeast fitness for these variants:
{"VARIANT": "U2A U47G", "yeast fitness": 0.583}
{"VARIANT": "U8A A43G", "yeast fitness": 0.742}
{"VARIANT": "G50C A69U", "yeast fitness": 0.833}
{"VARIANT": "A21G C29U G38C", "yeast fitness": 0.814}

Pending variant:
Entry under test: A43U G50C A65C . Its yeast fitness was 0.556
